Data provenance: patent US20260125375A1

# system-name: C-CBL (46-435) (Homo sapiens, UniProt P22681)
# Construct: N-terminal biotinylated WT CBL-B (36-427) and C-CBL (46-435) were captured on a streptavidin (SA) coated sensor chip
# Sequence (P22681 46-435): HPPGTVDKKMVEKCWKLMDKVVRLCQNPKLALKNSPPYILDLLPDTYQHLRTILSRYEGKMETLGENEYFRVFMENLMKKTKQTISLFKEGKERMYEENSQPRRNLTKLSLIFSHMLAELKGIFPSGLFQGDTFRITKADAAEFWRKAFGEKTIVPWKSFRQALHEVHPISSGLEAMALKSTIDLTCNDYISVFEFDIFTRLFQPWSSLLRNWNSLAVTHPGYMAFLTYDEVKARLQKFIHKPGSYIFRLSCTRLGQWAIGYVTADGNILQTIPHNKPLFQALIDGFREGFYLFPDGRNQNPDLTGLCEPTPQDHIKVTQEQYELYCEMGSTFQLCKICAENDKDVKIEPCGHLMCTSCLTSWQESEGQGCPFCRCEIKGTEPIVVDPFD
# experiment-notes: Surface Plasmon Resonance (SPR) assay, binding affinity and kinetics, C-CBL
# setup-conditions: SPR at 10° C., biotinylated C-CBL (46-435) on streptavidin chip; geometric mean; read-out: C-CBL SPR Kd (nM) GMean
The label Criterion met is reserved for Kd strictly under 80 nM; Criterion not met covers values equal to or above it.

C[C@H](N[C@@H]1CCC[C@@H]1O)c1nc(C(F)(F)F)cc2c(-c3cccc([C@H](c4nncn4C)C4CCC4)c3)n[nH]c12 (single isomer, unassigned): Criterion met
CC(c1nc(C(F)(F)F)cc2c(-c3cccc(C4(Cc5nncn5C)COC4)c3)n[nH]c12)N1CCOCC1 (single isomer, unassigned) [Example C23]: Criterion met
Cn1cnnc1CC1(c2cccc(-c3n[nH]c4c(CNC5CC(F)(F)C5)nc(C(F)(F)F)cc34)c2)COC1: Criterion not met
CC(O)c1nc(C(F)(F)F)cc2c(-c3cccc(C4(Cc5nncn5C)COC4)c3)n[nH]c12 (single isomer, unassigned) [Example K11]: Criterion not met
CCNCc1nc(C(F)(F)F)cc2c(-c3cccc(C4(Cc5nncn5C)COC4)c3)n[nH]c12: Criterion not met
